- PROCEDURE_DETAILS: Protonation constants of the ligands by potentiometry
- Type: physicochemical
- PARTICULARS: I = 0.1 KNO3, 25° C.
MEASURE: log Ki^H [H2L]/[HL][H]

>>> observed_result("O=C(O)CN1CCN(Cc2cccc(C(=O)O)n2)CCN(CC(=O)O)Cc2cccc(n2)C1 [Ligand P04218]")
7.38
>>> observed_result("CCCCOP(=O)(O)CN1CCN(CP(=O)(O)OCCCC)Cc2cccc(n2)CN(CP(=O)(O)OCCCC)CC1 [PCTMB, reference compound]")
5.28
>>> observed_result("O=C(O)c1cccc(CN2CCN(Cc3cccc(C(=O)O)n3)Cc3cccc(n3)CN(Cc3cccc(C(=O)O)n3)CC2)n1 [Ligand P04221]")
5.95
>>> observed_result("O=C(O)CN1CCN(Cc2cccc(C(=O)O)n2)Cc2cccc(n2)CN(Cc2cccc(C(=O)O)n2)CC1 [Ligand P04213]")
5.58
>>> observed_result("O=C(O)CN1CCN(Cc2cccc(C(=O)O)n2)CCN(Cc2cccc(C(=O)O)n2)Cc2cccc(n2)C1 [Ligand P04214]")
6.73

---

- PROCEDURE_DETAILS: Protonation constants of the ligands by potentiometry
- Format: physicochemical
- PARTICULARS: I = 0.1 KNO3, 25° C.
- Protocol: The experiments were performed under an inert atmosphere in aqueous solutions thermostatically maintained at 25.0±0.1° C. […] The electromotive force of the solution was measured after calibration of the electrode by titration of a standard […] HNO3 solution. The [H^+] of the solutions was determined by measuring the electromotive force of the cell, E=E^o′+Q log [H^+]+Ej. […] E^o′ and Q are determined by the acidic region of the calibration curves. […]
MEASURE: log Ki^H [H3L]/[H2L][H]

>>> observed_result("O=C(O)CN1CCN(Cc2cccc(C(=O)O)n2)CCN(Cc2cccc(C(=O)O)n2)Cc2cccc(n2)C1 [Ligand P04214]")
3.86
>>> observed_result("O=C(O)c1cccc(CN2CCN(Cc3cccc(C(=O)O)n3)Cc3cccc(n3)CN(Cc3cccc(C(=O)O)n3)CC2)n1 [Ligand P04221]")
3.82
>>> observed_result("CCCCOP(=O)(O)CN1CCN(CP(=O)(O)OCCCC)Cc2cccc(n2)CN(CP(=O)(O)OCCCC)CC1 [PCTMB, reference compound]")
1.72
>>> observed_result("O=C(O)CN1CCN(Cc2cccc(C(=O)O)n2)CCN(CC(=O)O)Cc2cccc(n2)C1 [Ligand P04218]")
3.95
>>> observed_result("O=C(O)CN1CCN(Cc2cccc(C(=O)O)n2)Cc2cccc(n2)CN(Cc2cccc(C(=O)O)n2)CC1 [Ligand P04213]")
4.23

---

- PROCEDURE_DETAILS: Stability constants of the yttrium complexes by potentiometry
- Assay type: physicochemical
- PARTICULARS: Y^3+; direct potentiometric titration, 25° C., I=0.1 M KNO3
MEASURE: log KMHiL [ML]/[MLOH][H] (log KYLH^−1)

>>> observed_result("O=C(O)CN1CCN(Cc2cccc(C(=O)O)n2)Cc2cccc(n2)CN(Cc2cccc(C(=O)O)n2)CC1")
11.84
>>> observed_result("O=C([O-])c1cccc(CN2CCN(Cc3cccc(C(=O)[O-])n3)Cc3cccc(n3)CN(Cc3cccc(C(=O)[O-])n3)CC2)n1.[Y+3]")
11.02
>>> observed_result("O=C(O)CN1CCN(Cc2cccc(C(=O)O)n2)CCN(Cc2cccc(C(=O)O)n2)Cc2cccc(n2)C1")
11.79
>>> observed_result("O=C(O)CN1CCN(Cc2cccc(C(=O)O)n2)CCN(CC(=O)O)Cc2cccc(n2)C1")
10.60
